Source listed as ChEMBL document CHEMBL1129611.

# experiment.description: Tissue distribution of [125I]- labelled compound in mice hippocampus in 4 hours
# Format: functional, tissue-based
assay.metric: Dose/g (%)
# output: bare number, implied unit %

Please review the following examples before continuing.
O[C@@H]1Cc2ccccc2C[C@H]1N1CCC(c2ccc(I)cc2)CC1 : 0.31
O[C@@H]1Cc2cc(I)ccc2C[C@H]1N1CCC(c2ccccc2)CC1 : 1.27
O[C@@H]1Cc2cccc(I)c2C[C@H]1N1CCC(c2ccccc2)CC1 : 1.06

Exercise: // lookup Dose/g for O[C@@H]1Cc2ccc(I)cc2C[C@H]1N1CCC(c2ccccc2)CC1
Key: 1.03

---

Listed next: entries and their corresponding Dose/g.
# experiment.description: Tissue distribution of [125I]- labelled compound in mice cortex in 4 hours
# Assay type: functional, tissue-based
Give just the number in %; leave the unit off.

Answered cases to consult:
O[C@@H]1Cc2cc(I)ccc2C[C@H]1N1CCC(c2ccccc2)CC1 : 1.62
O[C@@H]1Cc2ccccc2C[C@H]1N1CCC(c2ccc(I)cc2)CC1 : 0.32
O[C@@H]1Cc2ccc(I)cc2C[C@H]1N1CCC(c2ccccc2)CC1 : 1.28
O[C@@H]1Cc2c(I)cccc2C[C@H]1N1CCC(c2ccccc2)CC1 : 0.1

Pending compound:
Exercise: # query: Dose/g of entry O[C@@H]1Cc2cccc(I)c2C[C@H]1N1CCC(c2ccccc2)CC1
Key: 1.17
